- TARGET UNDER TEST: CD40L-CD40 interaction (Homo sapiens)
- Sequence (P29965 113-261 limits assumed): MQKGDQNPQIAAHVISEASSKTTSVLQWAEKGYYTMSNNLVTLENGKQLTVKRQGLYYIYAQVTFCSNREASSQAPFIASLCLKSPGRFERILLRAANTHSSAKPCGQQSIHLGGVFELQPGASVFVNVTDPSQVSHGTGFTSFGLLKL
- PROTOCOL DESCRIPTION: Chemiluminescent proximity assay (Alphascreen)
- Type: binding
- MEASUREMENT CONTEXT: PEGylated chiral (retro-inverted) analog; read-out: EC50(PEGylated) CD40L/CD40-Fc/BAF617
MEASURED ATTRIBUTE: pEC50
The read-out pEC50 is expressed as -log10 of concentration in moles per litre.

[in] Field: pEC50 (CD40L-CD40 interaction (Homo sapiens)). Entry: AQWWHHRFSFLGAIQFFERGAAD [CD40L M1_30rd]
[out] 7.62

[in] Now the sequence VHSYYVWILQFYYKFRSYRWHYQIS [CD40L M1_82rd]
[out] 8.00

[in] Now the sequence FYLYDRRFSSYFRFLFFLNYRPP [CD40L M1_9rd]
[out] 7.85

[in] Now the sequence RVWNSFWLHIGGRQVGSPVFLSYFRNRVWRP [CD40L M1_50rd]
[out] 6.25

[in] Now the sequence YVSFFNWISFVNKISFPH [CD40L M1_6rd]
[out] 7.70

[in] Now the sequence SKVRMQFDIINFPVNVGFLVFSH [CD40L M1_42rd]
[out] 7.80

[in] Now the sequence FHRMYVILQIIWFITPRWTFP [CD40L M7_206rd]
[out] 7.92
